target: Bromodomain testis-specific protein (Homo sapiens); assay: Binding affinity to human partial length DNA-tagged BRDT isoform b BD2 expressed in bacterial by BROMOscan method
quantity.name: Kd (nM)
# output: bare number, implied unit nM

`CC(=O)N1c2ccc(C3=CCNCC3)cc2N(Cc2ccccc2CO)C[C@@H]1C1CC1` tested on Bromodomain testis-specific protein (Homo sapiens) gave Kd: 20.9

---

biological target: Bromodomain-containing protein 3 (Homo sapiens, UniProt Q15059); assay: Binding affinity to human partial length DNA-tagged BRD3 BD2 expressed in bacterial by BROMOscan method
Sequence (Q15059 whole entry): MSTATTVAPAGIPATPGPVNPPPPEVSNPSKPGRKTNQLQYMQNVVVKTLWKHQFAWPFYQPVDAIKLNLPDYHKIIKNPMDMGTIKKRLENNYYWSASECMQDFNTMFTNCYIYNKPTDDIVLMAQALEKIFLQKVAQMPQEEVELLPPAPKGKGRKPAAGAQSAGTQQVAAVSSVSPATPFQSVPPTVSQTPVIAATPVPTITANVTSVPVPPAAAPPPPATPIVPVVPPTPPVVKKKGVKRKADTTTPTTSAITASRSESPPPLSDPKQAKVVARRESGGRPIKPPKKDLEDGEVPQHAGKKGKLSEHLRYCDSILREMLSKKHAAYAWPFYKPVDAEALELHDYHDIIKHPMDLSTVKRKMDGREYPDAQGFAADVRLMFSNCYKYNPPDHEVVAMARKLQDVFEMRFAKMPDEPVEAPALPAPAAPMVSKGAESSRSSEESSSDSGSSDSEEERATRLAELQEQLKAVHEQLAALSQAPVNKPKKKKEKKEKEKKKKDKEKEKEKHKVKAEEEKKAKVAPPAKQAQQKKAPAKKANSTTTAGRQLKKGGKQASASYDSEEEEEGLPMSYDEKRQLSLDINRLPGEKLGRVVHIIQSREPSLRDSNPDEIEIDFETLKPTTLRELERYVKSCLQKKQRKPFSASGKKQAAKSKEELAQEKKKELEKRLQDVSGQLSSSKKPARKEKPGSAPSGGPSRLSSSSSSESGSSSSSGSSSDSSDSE
quantity.name: pKd
Formally, pKd is defined as -log10 of the concentration c, with c in mol/L.

// field: pKd; key: `CC(=O)N1c2ccc(C3=CCNCC3)cc2N(Cc2ccccc2CO)C[C@@H]1C1CC1` ; value = 7.71

---

target: Peregrin (Homo sapiens); assay: Binding affinity to human partial length DNA-tagged BRPF1 expressed in bacterial by BROMOscan method
Sequence (P55201 whole entry): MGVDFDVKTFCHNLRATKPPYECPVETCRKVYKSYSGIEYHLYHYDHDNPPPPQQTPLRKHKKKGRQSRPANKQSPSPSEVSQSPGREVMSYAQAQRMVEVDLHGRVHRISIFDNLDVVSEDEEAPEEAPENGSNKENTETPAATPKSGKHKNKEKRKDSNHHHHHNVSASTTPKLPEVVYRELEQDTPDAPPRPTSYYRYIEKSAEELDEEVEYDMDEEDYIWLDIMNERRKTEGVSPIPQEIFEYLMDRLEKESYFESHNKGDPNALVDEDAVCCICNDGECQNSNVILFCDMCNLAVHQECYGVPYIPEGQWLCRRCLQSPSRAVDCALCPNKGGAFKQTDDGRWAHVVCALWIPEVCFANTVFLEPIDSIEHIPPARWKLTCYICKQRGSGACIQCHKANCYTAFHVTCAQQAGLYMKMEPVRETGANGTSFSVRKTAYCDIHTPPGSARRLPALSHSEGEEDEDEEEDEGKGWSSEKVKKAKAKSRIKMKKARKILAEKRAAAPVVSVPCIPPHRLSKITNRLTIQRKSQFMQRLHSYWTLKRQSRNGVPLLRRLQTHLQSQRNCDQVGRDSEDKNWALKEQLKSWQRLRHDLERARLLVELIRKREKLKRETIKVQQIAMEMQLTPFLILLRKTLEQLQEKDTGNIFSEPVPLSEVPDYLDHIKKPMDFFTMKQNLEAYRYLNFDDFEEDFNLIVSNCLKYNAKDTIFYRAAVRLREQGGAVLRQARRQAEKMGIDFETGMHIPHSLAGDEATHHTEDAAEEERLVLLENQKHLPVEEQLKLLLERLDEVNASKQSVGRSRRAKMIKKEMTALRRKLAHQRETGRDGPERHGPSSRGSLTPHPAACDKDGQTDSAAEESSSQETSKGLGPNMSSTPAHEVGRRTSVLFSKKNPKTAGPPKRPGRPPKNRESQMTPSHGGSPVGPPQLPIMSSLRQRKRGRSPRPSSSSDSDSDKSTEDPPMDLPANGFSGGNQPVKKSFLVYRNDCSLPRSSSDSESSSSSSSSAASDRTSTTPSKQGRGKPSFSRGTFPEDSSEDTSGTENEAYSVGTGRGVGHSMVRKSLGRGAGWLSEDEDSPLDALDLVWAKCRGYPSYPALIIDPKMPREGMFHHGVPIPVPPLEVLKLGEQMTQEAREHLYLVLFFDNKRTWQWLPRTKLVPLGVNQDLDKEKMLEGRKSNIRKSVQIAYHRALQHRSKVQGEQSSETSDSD
quantity.name: pKd
Formally, pKd is defined as -log10 of the concentration c, with c in mol/L.

// field: pKd; key: `CC(=O)N1c2ccc(C3=CCNCC3)cc2N(Cc2ccccc2CO)C[C@@H]1C1CC1` ; value = 5.61

---

molecular target: Bromodomain-containing protein 2 (Homo sapiens); assay: Binding affinity to human partial length DNA-tagged BRD2 isoform 1 BD1 expressed in bacterial by BROMOscan method
Sequence (P25440 whole entry, canonical isoform): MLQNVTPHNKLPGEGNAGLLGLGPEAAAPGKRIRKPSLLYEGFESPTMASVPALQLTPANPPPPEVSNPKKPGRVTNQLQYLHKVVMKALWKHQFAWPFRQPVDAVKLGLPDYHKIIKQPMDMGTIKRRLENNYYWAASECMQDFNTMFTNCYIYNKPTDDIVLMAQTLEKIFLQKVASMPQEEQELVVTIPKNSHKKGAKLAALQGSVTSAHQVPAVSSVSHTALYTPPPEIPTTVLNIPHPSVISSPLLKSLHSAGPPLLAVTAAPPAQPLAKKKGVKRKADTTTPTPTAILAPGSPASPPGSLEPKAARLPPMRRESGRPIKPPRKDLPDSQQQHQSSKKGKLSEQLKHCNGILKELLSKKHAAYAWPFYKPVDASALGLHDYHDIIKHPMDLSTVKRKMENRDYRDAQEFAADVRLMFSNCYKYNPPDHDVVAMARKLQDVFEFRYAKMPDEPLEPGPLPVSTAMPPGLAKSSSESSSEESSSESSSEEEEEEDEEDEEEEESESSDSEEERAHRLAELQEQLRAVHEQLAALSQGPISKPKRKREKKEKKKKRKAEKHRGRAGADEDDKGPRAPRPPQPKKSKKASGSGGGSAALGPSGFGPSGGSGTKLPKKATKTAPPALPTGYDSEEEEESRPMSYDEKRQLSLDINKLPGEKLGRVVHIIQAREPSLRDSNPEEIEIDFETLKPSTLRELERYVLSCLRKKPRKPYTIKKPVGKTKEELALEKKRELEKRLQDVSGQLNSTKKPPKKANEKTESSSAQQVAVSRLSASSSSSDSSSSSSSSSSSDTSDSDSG
quantity.name: pKd
Formally, pKd is defined as -log10 of the concentration c, with c in mol/L.

// field: pKd; key: `CC(=O)N1c2ccc(C3=CCNCC3)cc2N(Cc2ccccc2CO)C[C@@H]1C1CC1` ; value = 5.88

---

system: PBMC; assay: cells; conditions: Homo sapiens, read-out: pIC50 (converted)
Description: Antiinflammatory activity in human PBMC assessed as inhibition of LPS-induced MCP1 release preincubated for 30 mins followed by LPS challenge measured after 24 hrs by immunoassay
quantity.name: IC50 (µM)
# output: bare number, implied unit µM

Below, 4 compounds whose answers are already recorded.
>>> df
                                   compound  recorded_measurement
0  CC(=O)N1c2ccccc2N(Cc2ccccc2CC(=O)O)CC1C1CC1 (stereo not drawn)                  1.26
1  CC(=O)N1c2ccccc2N(Cc2ccccc2)CC1C1CC1 (stereo not drawn)                  3.16
2  CC(=O)N1c2ccc(C3=CCNCC3)cc2N(Cc2ccccc2CO)C[C@@H]1C1CC1                0.0398
3  CC(=O)N1c2ccccc2N(Cc2ccccc2)CC1C (stereo not drawn)                  1.26

Attention now turns to another entry.
`CC(=O)N1CCN(Cc2cccc(C)c2)c2ccccc21` tested on PBMC gave IC50: 3.16

---

molecular target: SWI/SNF-related matrix-associated actin-dependent regulator of chromatin subfamily A member 2 (Homo sapiens); assay: Binding affinity to human partial length DNA-tagged SMARCA2 expressed in bacteria by BROMOscan method
Sequence (P51531 whole entry): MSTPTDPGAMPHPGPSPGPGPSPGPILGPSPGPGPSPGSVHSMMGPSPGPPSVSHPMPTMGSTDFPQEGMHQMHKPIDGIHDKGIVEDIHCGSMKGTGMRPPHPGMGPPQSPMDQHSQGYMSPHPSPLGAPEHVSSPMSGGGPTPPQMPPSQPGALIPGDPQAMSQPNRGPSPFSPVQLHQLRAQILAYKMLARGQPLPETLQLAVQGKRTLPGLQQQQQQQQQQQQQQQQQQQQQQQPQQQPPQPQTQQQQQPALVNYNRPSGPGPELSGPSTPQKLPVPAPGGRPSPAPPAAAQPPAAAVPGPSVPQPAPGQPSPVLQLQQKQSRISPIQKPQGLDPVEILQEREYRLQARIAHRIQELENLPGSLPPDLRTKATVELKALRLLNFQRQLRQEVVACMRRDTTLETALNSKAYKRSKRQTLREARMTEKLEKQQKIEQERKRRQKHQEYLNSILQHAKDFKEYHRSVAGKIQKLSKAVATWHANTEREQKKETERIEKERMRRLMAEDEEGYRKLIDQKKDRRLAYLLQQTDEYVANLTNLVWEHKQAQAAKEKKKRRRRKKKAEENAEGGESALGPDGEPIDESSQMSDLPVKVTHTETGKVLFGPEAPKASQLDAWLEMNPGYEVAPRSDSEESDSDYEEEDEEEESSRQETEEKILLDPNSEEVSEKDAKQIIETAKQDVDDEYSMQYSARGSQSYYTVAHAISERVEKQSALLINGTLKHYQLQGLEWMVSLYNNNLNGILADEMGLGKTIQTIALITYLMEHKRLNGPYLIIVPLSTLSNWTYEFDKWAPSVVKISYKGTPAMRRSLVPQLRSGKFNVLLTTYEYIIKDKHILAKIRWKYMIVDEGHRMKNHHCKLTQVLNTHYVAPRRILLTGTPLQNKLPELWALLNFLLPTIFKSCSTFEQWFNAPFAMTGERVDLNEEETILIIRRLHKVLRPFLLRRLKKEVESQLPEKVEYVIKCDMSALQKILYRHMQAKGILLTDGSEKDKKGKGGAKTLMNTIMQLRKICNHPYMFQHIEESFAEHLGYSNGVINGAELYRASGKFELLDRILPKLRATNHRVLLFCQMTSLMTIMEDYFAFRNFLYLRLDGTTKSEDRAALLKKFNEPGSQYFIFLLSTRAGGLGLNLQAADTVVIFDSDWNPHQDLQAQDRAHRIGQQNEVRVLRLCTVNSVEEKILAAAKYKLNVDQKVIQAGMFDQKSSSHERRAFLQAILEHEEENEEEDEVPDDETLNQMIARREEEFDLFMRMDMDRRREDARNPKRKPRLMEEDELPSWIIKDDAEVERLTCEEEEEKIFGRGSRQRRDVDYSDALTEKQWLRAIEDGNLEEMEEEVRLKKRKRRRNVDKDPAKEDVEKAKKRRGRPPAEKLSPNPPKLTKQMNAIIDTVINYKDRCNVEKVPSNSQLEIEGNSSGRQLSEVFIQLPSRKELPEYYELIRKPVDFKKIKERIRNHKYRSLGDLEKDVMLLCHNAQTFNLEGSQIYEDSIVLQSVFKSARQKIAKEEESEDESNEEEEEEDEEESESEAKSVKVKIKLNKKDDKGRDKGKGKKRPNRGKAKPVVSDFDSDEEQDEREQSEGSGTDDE
quantity.name: Kd

// field: Kd; key: `CC(=O)N1c2ccc(C3=CCNCC3)cc2N(Cc2ccccc2CO)C[C@@H]1C1CC1` ; value = > 30.2 µM

---

biological target: Bromodomain-containing protein 7 (Homo sapiens, UniProt Q9NPI1); test: Binding affinity to human partial length DNA-tagged BRD7 expressed in mammalian expression system by BROMOscan method
Sequence (Q9NPI1 whole entry): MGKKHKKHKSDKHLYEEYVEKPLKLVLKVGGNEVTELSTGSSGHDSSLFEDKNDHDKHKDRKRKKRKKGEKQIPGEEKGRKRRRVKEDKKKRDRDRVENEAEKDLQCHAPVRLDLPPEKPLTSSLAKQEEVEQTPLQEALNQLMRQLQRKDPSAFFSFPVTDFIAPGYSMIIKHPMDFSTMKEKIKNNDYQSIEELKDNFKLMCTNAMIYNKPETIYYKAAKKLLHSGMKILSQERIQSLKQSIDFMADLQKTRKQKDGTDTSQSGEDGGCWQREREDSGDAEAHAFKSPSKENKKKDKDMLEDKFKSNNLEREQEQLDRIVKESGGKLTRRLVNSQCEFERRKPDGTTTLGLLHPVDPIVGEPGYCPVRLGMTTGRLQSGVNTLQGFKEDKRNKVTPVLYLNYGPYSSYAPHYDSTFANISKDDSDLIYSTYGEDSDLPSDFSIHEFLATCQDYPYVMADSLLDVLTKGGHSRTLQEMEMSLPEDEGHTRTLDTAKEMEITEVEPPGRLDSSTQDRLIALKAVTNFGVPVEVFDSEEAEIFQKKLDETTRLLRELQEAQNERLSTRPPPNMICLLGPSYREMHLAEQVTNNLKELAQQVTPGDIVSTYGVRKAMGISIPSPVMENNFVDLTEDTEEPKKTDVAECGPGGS
quantity.name: Kd

// field: Kd; key: `CC(=O)N1c2ccc(C3=CCNCC3)cc2N(Cc2ccccc2CO)C[C@@H]1C1CC1` ; value = > 30.2 µM

Origin of measurements: ChEMBL document CHEMBL4184317
